# assay.name: Hygroscopicity by Dynamic Vapor Sorption Analysis (DVS)
# Format: physicochemical
# measurement.parameters: RH 95 → 40% (desorption)
reported.metric: Relative weight change (dm) (%)
One number for each entry, in %.

FC(F)(F)Oc1ccc(Nc2ccc3cccc(Cl)c3n2)cc1.O=S(=O)(O)c1ccccc1 [besylate] : 1.1

For the 4 compounds below, give their Relative weight change (dm) values.
1. FC(F)(F)Oc1ccc(Nc2ccc3cccc(Cl)c3n2)cc1.O=S(=O)(O)O
2. Cl.FC(F)(F)Oc1ccc(Nc2ccc3cccc(Cl)c3n2)cc1 [HCl]
3. FC(F)(F)Oc1ccc(Nc2ccc3cccc(Cl)c3n2)cc1 [free base]
4. Cc1ccc(S(=O)(=O)O)cc1.FC(F)(F)Oc1ccc(Nc2ccc3cccc(Cl)c3n2)cc1 [tosylate]

**Result**
[0.03, 7.8, 0.03, "−0.03"]

###

# assay.name: Aqueous solubility in four aqueous buffers with distinct pH values
# Type: physicochemical
# measurement.parameters: thermodynamic from solid; FaSSiF (SIF-powder); 1 h
reported.metric: solubility at 1 h (µg/mL)
Give bare numbers, in µg/mL.

**Query** Assign solubility at 1 h to the following record: FC(F)(F)Oc1ccc(Nc2ccc3cccc(Cl)c3n2)cc1.O=S(=O)(O)O [H2SO4]
**Result** 157

###

# assay.name: Hygroscopicity by Dynamic Vapor Sorption Analysis (DVS)
# Type: physicochemical
# measurement.parameters: RH 40 → 0% (first step to 0)
Provide the reported Relative weight change (dm) of each item.
Answers are plain numbers, in %.

Study these solved cases before continuing.
FC(F)(F)Oc1ccc(Nc2ccc3cccc(Cl)c3n2)cc1.O=S(=O)(O)c1ccccc1 [besylate] : −0.04
Cl.FC(F)(F)Oc1ccc(Nc2ccc3cccc(Cl)c3n2)cc1 [HCl] : −0.11
FC(F)(F)Oc1ccc(Nc2ccc3cccc(Cl)c3n2)cc1.O=S(=O)(O)O [H2SO4] : −0.11
Cc1ccc(S(=O)(=O)O)cc1.FC(F)(F)Oc1ccc(Nc2ccc3cccc(Cl)c3n2)cc1 [tosylate] : −0.05

Now for the compound whose Relative weight change (dm) we want.
**Query** Assign Relative weight change (dm) to the following record: FC(F)(F)Oc1ccc(Nc2ccc3cccc(Cl)c3n2)cc1 [free base]
**Result** 0

###

Provide the reported solubility at 1 h of each item.
# assay.name: Aqueous solubility in four aqueous buffers with distinct pH values
# Assay type: physicochemical
# measurement.parameters: aqueous buffer, pH 4.5, aqueous buffer, thermodynamic from solid, 20 mM Na-acetate pH 4.5; 1 h
Answers are plain numbers, in µg/mL.

Study these solved cases before continuing.
Cc1ccc(S(=O)(=O)O)cc1.FC(F)(F)Oc1ccc(Nc2ccc3cccc(Cl)c3n2)cc1 [tosylate] : 3
FC(F)(F)Oc1ccc(Nc2ccc3cccc(Cl)c3n2)cc1 [hemi-edisylate] : 50
FC(F)(F)Oc1ccc(Nc2ccc3cccc(Cl)c3n2)cc1.O=S(=O)(O)c1ccccc1 [besylate] : 16

**Query** Assign solubility at 1 h to the following record: Cl.FC(F)(F)Oc1ccc(Nc2ccc3cccc(Cl)c3n2)cc1 [HCl]
**Result** 136

###

# assay.name: Aqueous solubility in four aqueous buffers with distinct pH values
# Assay type: physicochemical
# measurement.parameters: aqueous buffer, thermodynamic from solid; 20 mM Na-acetate pH 4.5; 15 min
reported.metric: solubility at 15 min (mg/mL)
Numbers only, in mg/mL.

**Query** Assign solubility at 15 min to the following record: FC(F)(F)Oc1ccc(Nc2ccc3cccc(Cl)c3n2)cc1.O=S(=O)(O)O [H2SO4]
**Result** 0.093

Origin of the recorded values: patent US10745357B2
